Test: yeast display, Sf9 membrane polyspecificity reagent, FACS + sequencing; frameworks hold sequencing errors
EXPERIMENTAL_ENDPOINT: polyreactivity (PSR sort gate)

Example cases with answers are listed next.
# RESIDUE_SEQUENCE, polyreactivity (PSR sort gate)
measured = [
    ("QVQLVESGGGLVQAGGSLRLSCAASGFIFGTYAMGWYRQAPGKERELVAAISSGGSTYYADSVKGRFTISRDNAKNTVYLQMNSLKPEDTAVYYCAKEGGTYRIFNYWGQGTQVTVSS", "low polyreactivity"),
    ("QVQLVESGGGLVQAGGSLRLSCAASGRIFGYYAMGWYRQAPGKERELVARITWSGGDTYYADSVKGRFTISRDNAKNTVYLQMNSLKPEDTAVYYCAADYLDSTYGYVYGWDDYWGQGTQVTVSS", "low polyreactivity"),
    ("QVQLVESWGGLVQAGGSLRLSCAASGRIFYDYAMGWYRQAPGKERELVAAISKGGGSTYYADSVKGRFTISRDNAKKTVYLQMNSLKAEDTAVYFCAASTSHTTDTRYDYWGQGTQVTVSS", "low polyreactivity"),
    ("QVQLEESGAGLVQAGGSLRLSCAASVFTFCCTTMGRSRPAPGKESELVATISRTGGITYYADSVKGRFTISRDNAKNTVNLQMNSLKPEDTAVYYCILRYYWGQVTQVTVSS", "high polyreactivity"),
    ("QVQLVESGGGLVQAGGSLRLSCAASGRTFGSYAMGWYRQAPGKERELVAAISSSGGRTYYADSVKGRFTISRDNAKTTVYLQMNSLKPEDTAVYSCNARWRFLYDYWGQGTQVTVSS", "high polyreactivity"),
]

Hi there! I need polyreactivity (PSR sort gate) for each item below, if you can.
1. QVQLVESGGGLLQAGGSLRLSSAASGRTFSTNAMGWYRQAPGKERELVAAITSRGGSTYYADSVKGRFTISRDNAKNTVYLQMNSLKPEDTAVYYCAAGWLPKYGYWGQGTQVTVSS
2. QVQLVESGGGLVQAGGSLRLSCAATGFIFGYYALGGYRQAPGKERELVAAINKNGGSTYYADSVKGRFTISRDNAKNTVYLQMNSLKPEDTAVYYCAARARGYAWTYDYWGQGTQVTVSS
3. QDQLVESGGGLVQAGGSLRLSCAAYGIIFWDNAMGWYRQAPGKERELVASINYSGGSTYYADSVKGRFTISRDNAKNTVYLQMYSLKPEDTAVYYCAARTVTLDDWDYAYDYWGQGTQVTVSS
4. QVQLVESGGGLVQAGGSLRLSCAASGRTFYYYAMGWYRQAPGKERELVAAISSRGGRTYYADSVKGRFTISRDNAKNTVYLQMNSLKPEDTAVYYCAKVVAYYDRDSWGQGTQVTVSS
5. QVQLVESGGGLVQAGGSLRLSCAASGSTFGRNALGWYRQAPGKERELVASISWGGGSTYYADSVKGRFTISRDNSKNTVYLQMNSLKTEDTAVYYCNARRFLWSQLSGSFSYDYWGQGTQVTVSS
6. HVQLVESGGGLVQAGGSLRLSCAASGSIFESNAMGWYRQAPGKERELVAAYADSVKGRFTISRDNAKNTVYVQMNSLKPEETAVYYCAARIGTGVLPGRGANSHMDYWGQGTQVTVSS

1: low polyreactivity; 2: high polyreactivity; 3: low polyreactivity; 4: high polyreactivity; 5: high polyreactivity; 6: low polyreactivity

----------
Assay: yeast display, Sf9 membrane polyspecificity reagent, FACS + sequencing; frameworks hold sequencing errors

# RESIDUE_SEQUENCE, polyreactivity (PSR sort gate)
rows = [
    ("QVQLEESGGGLVQAGGSLRLSCAASGSISYNNVMGWYRQAPGKERELVARIRSGGSTYYADSVKGRFTISRDNAKNTVYLLMNSLKQEDTAVYYCAARTKRQAGSYGYWGQGTQVTVSS", "high polyreactivity"),
    ("QVQLVESGGGFVQAGGSLRLSCAASGRTFQFYAMGWYRQAPGKERELVAAITYSGDSTYYADSVKGRFTISRDNAKNTVYLQMNSLKPEDTAVYYCAAGVWFYWYEYDYWGQGTQVTVSS", "high polyreactivity"),
    ("QVQLVESGGGLVQAGGSLRLSCAASGRTILGYTMGWYRQAPGKESEFVAAITFSGDSTYYADSVKGRFTISRDKAKNTVYLQMNSLKPEDTAVYYCAAAIPRFSAGHYDYWGQGTQVTVSS", "high polyreactivity"),
    ("QVQLVESGGGIVQAGGSLRLSCAASGLSRGVNVMGLYRQAPGKERELVAAISGAGRTYYADSVKGRFTISRDNAKNTVFLQMNSLKPEDTAVYYCASVRRRLSLTYDYWGQGTQVTVSS", "high polyreactivity"),
]

----------
Assay: yeast display, Sf9 membrane polyspecificity reagent, FACS + sequencing; frameworks hold sequencing errors
EXPERIMENTAL_ENDPOINT: polyreactivity (PSR sort gate)

Example cases with answers are listed next.
# RESIDUE_SEQUENCE, RECORDED_RESULT
rows = [
    ("KDQLVESGGGLVQAGGSLRLSSAASGIRFYVHSMGWYRQAPGKERELDASITSSGGSTYYADSVKGRFTISRDKATNSVYLQMNSLKPEDTAVYYCNKERWPVTYREYDYWGQGTQVTVSS", "low polyreactivity"),
    ("QVQLGESGGGLVQAGGSLRLSCAASGGTFTSYAMGWYRQAPGKERELVAGITSSGGNTYYADSVKGRFTISRDNAKNTVYLQMNSLKPEDTAVYYCAAKSGRGRTMDYWGQGTQVTVSS", "high polyreactivity"),
    ("QVQLVESGGGLVQAGGSLRLSCAASGSIFEYNAMGWYRQAPGKERELVAAITDTGSITYYADSVKGRFTISRDNAKNTVYLQMNSLKPEDTAVYYCAARAYPATAVDRRQPGNYWGQGSQVTVSS", "low polyreactivity"),
    ("QDQLVESGGGLVQAGGSLRLSCAASGSIFVQYAMGWYRQAPGKERELVATISSSGGSTYYADSVKGRFTISRDNAKNTVYLQMNCLKPEDTAVYYCAADWTLDPSYGYYADDYWGQGTQVTVSS", "low polyreactivity"),
    ("QVQLLESGGGLVQAGGSLRLSCAASGRTFRSYAMGWYRQAPGKERELVAAISRSDGSTYYAESVKVRFTISRDNAKNTVYLQMNSLKPEDTAVYYCARSLYASSYLMYYWGQGTQVTVSS", "high polyreactivity"),
    ("QVQLVESGGGLVQAGGSLRLSCAASGRIFRAYAMGWYRQAPGKERELVAAISSGGITSYADSVKGRFTISRDNAKNTVYLQMNSLKPEDTAVDYCAALVYPYWGGSMYYWGQGTQVTVSS", "high polyreactivity"),
    ("QVQLVESGGGLVQAGGSLRLSCAASGSIFRDNAMGWYRQAPGKERELVASIRSSGGRTYYADSVKGRFTISRDNAKNTVYLQMNSLKPEDTAVYYCARRWYPVTPYARMYYWGQGTQVTVSS", "low polyreactivity"),
    ("QVQLVESGGGLVQAGGSLRLSCAASGRILGFYAMGWDRQAPGKERELVARINWSGTRTYYADSVKGRFTISRDNAKNTVYLQMNSLKPEDTAVYYCAAERYPYVVTYSKLDYWGQGTQVTVSS", "high polyreactivity"),
    ("QVQLVESGGGLVQAGGSLRLSCAASGFIFSNYAMGWYRQAPGKERELVAAISWSGTRTYYADSVKGRFTISRDNAKNTVYLQMNSLKPEDTAVYYCAAYGVYLYDYWGQGTQVTVSS", "low polyreactivity"),
    ("QVQLVESGGGLVQAGGSLRLSCAASGRIIGLYAMGWYRQAPGKEMELVAAISSAGSTYYADSVKGRFTISRDNAKNTVYLQMNSLKTEDTAVYYCDKSRYRGYDYWGQGTQVTVSS", "low polyreactivity"),
]

Hi there! I need polyreactivity (PSR sort gate) for each item below, if you can.
1. QVQLVESGGGLVQAGGSLRLSCAASGRIFGKYAMGWYRQAPGKERELVAANSRSCASTYYADSVKGRFTISRDNAKNTVYLQMNSLKPEDTAVYYCAAVPPYNYRFRVDYWGQGTQVTVSS
2. QVQLVESGGGLVQAGGSLRLSCAASGYTFGHYAMGWYRQAPGKERELVAVITSGGSTNYADSVKGRFTISRDNAKNTVYLQMNSLKPEDTAVYYCAADLYFYYVWIRDYWGQGTQVTVSS

1. high polyreactivity
2. low polyreactivity

----------
Experiment: yeast display, Sf9 membrane polyspecificity reagent, FACS + sequencing; frameworks hold sequencing errors
EXPERIMENTAL_ENDPOINT: polyreactivity (PSR sort gate)

# RESIDUE_SEQUENCE, RECORDED_RESULT
rows = [
    ("QVQLVESGGGLVQAGGSLRLSCAASGRIFGKYPMGWYRQAPAKERELVAAIRITGGSTYYADSVKGRFTISRDNAKNTVYLQMNSLKPEDTAVYYCAAVYKYADVIYDYWGQGTQVTVSS", "high polyreactivity"),
    ("QVQLVESGGGLVQAGGSLRLSCAASGSTFPRYAMGWYRQAPGKERELVAAISSSGRTYYADSVKGRFTISRDNAKNTVYLQMNSLKPEDTAVYYCNAPVARGEASYYWGQGTQVTVSS", "high polyreactivity"),
]
